Please find below pIC50 measurements for Rho-associated protein kinase 1 (Homo sapiens, UniProt Q13464), combined from several publications.
The quantity pIC50 is defined as the negative base-10 logarithm of the molar concentration.

Solved entries (count: 3):
COMPOUND: CC1=C(C(=O)Nc2ccc3[nH]ncc3c2)C(c2ccc(F)c(C(=O)NCc3ccccc3)c2)NC(=O)N1 (stereo not drawn)
TARGET_UNDER_TEST: Rho-associated protein kinase 1 (Homo sapiens, UniProt Q13464)
DATA_VALUE: 7.16
//
COMPOUND: CN(C(=O)c1cc2ccc(-c3nccc(Nc4ccc(-c5cn[nH]c5)cc4)n3)cc2[nH]1)C(CO)CO
TARGET_UNDER_TEST: Rho-associated protein kinase 1 (Homo sapiens, UniProt Q13464)
DATA_VALUE: 5.38
//
COMPOUND: Cc1ccc(-c2ccncc2)cc1C(=O)N[C@H](CO)c1cccc(C(=O)NC2CCCC2)c1
TARGET_UNDER_TEST: Rho-associated protein kinase 1 (Homo sapiens, UniProt Q13464)
DATA_VALUE: 7.77

Request: Note down pIC50 recorded for CN1CCN(C(=O)c2cc3ccc(-c4nccc(Nc5ccc(-c6cn[nH]c6)cc5)n4)cc3[nH]2)CC1
Result: 5.15

Request: Note down pIC50 recorded for Cc1cc(C(=O)N[C@H](CC(=O)O)c2ccccc2)ccc1-c1cn[nH]c1
Result: 7.34

* * *

Please find below pIC50 measurements for Rho-associated protein kinase 1 (Homo sapiens, UniProt Q13464), combined from several publications.
pIC50: −log10 of the molar value.

COMPOUND_STRUCTURE_STRING: COc1cc(F)cc(CNC(=O)N2CCc3cc(-c4cn[nH]c4)ccc3C2)c1
pIC50: 5.30 to 6.30

Request: Please indicate recorded pIC50 of COc1cccc([C@@H](C)NC(=O)c2ccc(-c3cn[nH]c3)cc2S(C)(=O)=O)c1 measured with Rho-associated protein kinase 1 (Homo sapiens, UniProt Q13464).
Result: < 5.70

Request: Please indicate recorded pIC50 of CC(C)NC(=O)COc1ccc(-n2ccc(Nc3ccc4[nH]ncc4c3Cl)n2)cc1F measured with Rho-associated protein kinase 1 (Homo sapiens, UniProt Q13464).
Result: 5.52 to 6.52

Request: Please indicate recorded pIC50 of Cc1cncc2cccc(S(=O)(=O)N3CC[C@H](NCCN)C3)c12 measured with Rho-associated protein kinase 1 (Homo sapiens, UniProt Q13464).
Result: > 6.00

Request: Please indicate recorded pIC50 of O=C(Nc1ccncc1Cl)c1cc2ccc(-c3nccc(Nc4ccc5[nH]ncc5c4)n3)cc2[nH]1 measured with Rho-associated protein kinase 1 (Homo sapiens, UniProt Q13464).
Result: < 5.00

Request: Please indicate recorded pIC50 of COc1cc(C(=O)N(Cc2ccccc2F)CC(C)(C)O)ccc1-c1cn[nH]c1 measured with Rho-associated protein kinase 1 (Homo sapiens, UniProt Q13464).
Result: 6.08

Request: Please indicate recorded pIC50 of CCN[C@H]1CCN(S(=O)(=O)c2cccc3cncc(C)c23)C1 measured with Rho-associated protein kinase 1 (Homo sapiens, UniProt Q13464).
Result: > 6.00

* * *

Please find below IC50 measurements for Rho-associated protein kinase 1 (Homo sapiens, UniProt Q13464), combined from several publications.

Solved entries (count: 8):
MOLECULE: O=S(=O)(c1cccc2cncc(Br)c12)N1CC[C@H](NCc2ccc[nH]2)C1
IC50: < 1 µM
//
MOLECULE: c1ccc2c(c1)CN(c1nc3c(c(Nc4ccc5[nH]ncc5c4)n1)COC3)C2
IC50: > 10 µM
//
MOLECULE: O=C(Nc1nncs1)c1cc2ccc(-c3nccc(Nc4ccc5[nH]ncc5c4)n3)cc2[nH]1
IC50: > 10 µM
//
MOLECULE: CCC(O)c1cc(C(=O)N[C@H](C)c2ccccc2)ccc1-c1cn[nH]c1 (stereo partly drawn)
IC50: > 2 µM
//
MOLECULE: O=C(C1CC(F)(F)C1)N1Cc2ccc(-c3ncc(F)c(Nc4ccc(-c5cn[nH]c5)cc4)n3)cc2C1
IC50: > 10 µM
//
MOLECULE: COc1cnc(-c2ccc3cc(C(=O)Nc4ccnnc4)[nH]c3c2)nc1Nc1ccc2[nH]ncc2c1
IC50: > 10 µM
//
MOLECULE: COc1ccc(CN[C@H]2CCN(S(=O)(=O)c3cccc4cncc(C)c34)C2)cc1
IC50: < 1 µM
//
MOLECULE: Cn1cc(C(=O)Nc2cccc(-n3ccc(Nc4ccc5[nH]ncc5c4)n3)c2)cn1
IC50: 3 to 10 µM

Request: Please indicate recorded IC50 of OCc1cccc(-c2ccnc3[nH]cc(Sc4ccccn4)c23)c1 measured with Rho-associated protein kinase 1 (Homo sapiens, UniProt Q13464).
Result: ≤ 10 µM

Request: Please indicate recorded IC50 of COc1cc(C(=O)NCc2cccc(NS(C)(=O)=O)c2)ccc1-c1cn[nH]c1 measured with Rho-associated protein kinase 1 (Homo sapiens, UniProt Q13464).
Result: 0.0246 µM

Request: Please indicate recorded IC50 of Cc1cn(-c2ccc3c(c2)CCN(C(=O)NC(C)C)C3)nc1Nc1ccc2[nH]ncc2c1Cl measured with Rho-associated protein kinase 1 (Homo sapiens, UniProt Q13464).
Result: 0.3 to 3 µM
